- assay_text: in vitro
- experimental_parameters: human, Caco-2, pH 7.4
quantity_name: Papp at 60 min

Exercise: Field request: Papp at 60 min | item: OC[C@@H](O)[C@@H](O)[C@H](O)[C@H](O)CO [^14C-Mannitol, ^14C-mannitol]
Key: ~0.4 ×10⁻⁶ cm/s
